Quick reference for Selectivity Index (SI) among some molecules
system: L. infantum LV50 intracellular amastigotes; assay: Anti-amastigote assay in THP-1-derived macrophages, L. infantum LV50; assay type: cell-based, Leishmania infantum; conditions: CC50 THP-1 / IC50 amastigotes LV50, 72 h

- Molecule: "CCCC(=O)Nc1ccc(OCC(O)CNC(C)C)c(C(C)=O)c1 (centres unmarked) [Acebutolol]"
  Assay system: "L. infantum LV50 intracellular amastigotes"
  Result value: "> 12.73"
- Molecule: "C[C@@H]1[C@H](O)[C@@H](C)/C=C/C=C/C=C/C=C/C=C/C=C/C=C/[C@H](O[C@@H]2O[C@H](C)[C@@H](O)[C@H](N)[C@@H]2O)C[C@@H]2O[C@](O)(C[C@@H](O)C[C@@H](O)[C@H](O)CC[C@@H](O)C[C@@H](O)CC(=O)O[C@H]1C)C[C@H](O)[C@H]2C(=O)O [Amphotericin B]"
  Assay system: "L. infantum LV50 intracellular amastigotes"
  Result value: "> 166.66"
- Molecule: "CCCCOc1cc(C(=O)NCCN(CC)CC)c2ccccc2n1 [Dibucaine]"
  Assay system: "L. infantum LV50 intracellular amastigotes"
  Result value: 31.97
- Molecule: "CCCNC(C)C(=O)Nc1ccccc1C (centres unmarked) [Prilocaine]"
  Assay system: "L. infantum LV50 intracellular amastigotes"
  Result value: "> 15.25"

Give Selectivity Index (SI) for CNC[C@H](O)c1cccc(O)c1 [Phenylephrine] tested on L. infantum LV50 intracellular amastigotes. > 5.68

* * *

tested on: L. infantum Drep-14 intracellular amastigotes; experiment: Anti-amastigote assay in THP-1-derived macrophages, L. infantum Drep-14; assay type: cell-based, Leishmania infantum; conditions: CC50 THP-1 / IC50 amastigotes Drep-14, 72 h
Quantity: Selectivity Index (SI)

Would you please look over these solved cases?
- Compound: "CNC[C@H](O)c1cccc(O)c1 [Phenylephrine]"
  Assay system: "L. infantum Drep-14 intracellular amastigotes"
  Selectivity Index (SI): "> 4.96"
- Compound: "CCCC(=O)Nc1ccc(OCC(O)CNC(C)C)c(C(C)=O)c1 (stereo not shown) [Acebutolol]"
  Assay system: "L. infantum Drep-14 intracellular amastigotes"
  Selectivity Index (SI): "> 14.45"
- Compound: "C[C@@H]1[C@H](O)[C@@H](C)/C=C/C=C/C=C/C=C/C=C/C=C/C=C/[C@H](O[C@@H]2O[C@H](C)[C@@H](O)[C@H](N)[C@@H]2O)C[C@@H]2O[C@](O)(C[C@@H](O)C[C@@H](O)[C@H](O)CC[C@@H](O)C[C@@H](O)CC(=O)O[C@H]1C)C[C@H](O)[C@H]2C(=O)O [Amphotericin B]"
  Assay system: "L. infantum Drep-14 intracellular amastigotes"
  Selectivity Index (SI): "> 125.00"

Then there is this compound:
Fill in reported Selectivity Index (SI) for this entry: CCCNC(C)C(=O)Nc1ccccc1C (stereo not shown) [Prilocaine] > 13.14

* * *

test system: L. infantum Drep-14 intracellular amastigotes; assay: Anti-amastigote assay in THP-1-derived macrophages, L. infantum Drep-14; assay type: cell-based, Leishmania infantum; settings: Leishmania infantum, Macrophage; Drep-14, intramacrophage, 72 h; read-out: Amastigotes IC50 (in brackets) (converted)
The label Y is reserved for IC50 strictly under 100 µM; N covers values equal to or above it.

Regarding CCCC(=O)Nc1ccc(OCC(O)CNC(C)C)c(C(C)=O)c1 (centres unmarked) [Acebutolol] , kindly confirm whether its IC50 is beneath 100 µM. Y

Take the molecule CNC[C@H](O)c1cccc(O)c1 [Phenylephrine] and say whether its IC50 is less than 100 µM. N

Bench note: check whether CCCCOc1cc(C(=O)NCCN(CC)CC)c2ccccc2n1 [Dibucaine] shows IC50 below 100 µM Y

Could you please tell me whether IC50 recorded for C[C@@H]1[C@H](O)[C@@H](C)/C=C/C=C/C=C/C=C/C=C/C=C/C=C/[C@H](O[C@@H]2O[C@H](C)[C@@H](O)[C@H](N)[C@@H]2O)C[C@@H]2O[C@](O)(C[C@@H](O)C[C@@H](O)[C@H](O)CC[C@@H](O)C[C@@H](O)CC(=O)O[C@H]1C)C[C@H](O)[C@H]2C(=O)O [Amphotericin B] is less than 100 µM? Y

IC50 strictly < 100 µM for this molecule? CCCNC(C)C(=O)Nc1ccccc1C (centres unmarked) [Prilocaine] N

* * *

assay: Cytotoxicity assay towards THP-1-derived macrophages (MTT); type: cell-based, human; settings: human, THP-1-derived macrophages (PMA-differentiated), 72 h of treatment, uninfected cells, MTT; read-out: THP-1-derived macrophages CC50
Quantity: CC50 at 72 h

Here are 5 compounds together with their reported answers.
- Compound: "CNC[C@H](O)c1cccc(O)c1"
  Quantity: "CC50 at 72 h"
  Result value: "> 200 µg/mL"
- Compound: "CCCC(=O)Nc1ccc(OCC(O)CNC(C)C)c(C(C)=O)c1 (stereo not drawn)"
  Quantity: "CC50 at 72 h"
  Result value: "> 200 µg/mL"
- Compound: "CCCNC(C)C(=O)Nc1ccccc1C (stereo not drawn)"
  Quantity: "CC50 at 72 h"
  Result value: "> 200 µg/mL"
- Compound: "CCCCOc1cc(C(=O)NCCN(CC)CC)c2ccccc2n1"
  Quantity: "CC50 at 72 h"
  Result value: "22.7 µg/mL"
- Compound: "O=c1[nH]c2ccccc2n1CCCN1CCC(n2c(=O)[nH]c3cc(Cl)ccc32)CC1"
  Quantity: "CC50 at 72 h"
  Result value: "26.5 µg/mL"

State its CC50 at 72 h for this compound: C[C@@H]1[C@H](O)[C@@H](C)/C=C/C=C/C=C/C=C/C=C/C=C/C=C/[C@H](O[C@@H]2O[C@H](C)[C@@H](O)[C@H](N)[C@@H]2O)C[C@@H]2O[C@](O)(C[C@@H](O)C[C@@H](O)[C@H](O)CC[C@@H](O)C[C@@H](O)CC(=O)O[C@H]1C)C[C@H](O)[C@H]2C(=O)O > 5 µg/mL

* * *

tested on: L. major Empa-12 intracellular amastigotes; experiment: Anti-amastigote assay in THP-1-derived macrophages, L. major Empa-12; assay type: cell-based, Leishmania major; conditions: CC50 THP-1 / IC50 amastigotes Empa-12, 72 h
# Selectivity Index (SI) listing for each entry below

Some compounds with recorded Selectivity Index (SI):
- Compound: "CCCCOc1cc(C(=O)NCCN(CC)CC)c2ccccc2n1 [Dibucaine]"
  Result value: 27.35
- Compound: "CNC[C@H](O)c1cccc(O)c1 [Phenylephrine]"
  Result value: "> 2.99"
- Compound: "CCCC(=O)Nc1ccc(OCC(O)CNC(C)C)c(C(C)=O)c1 (centres unmarked) [Acebutolol]"
  Result value: "> 8.98"
- Compound: "C[C@@H]1[C@H](O)[C@@H](C)/C=C/C=C/C=C/C=C/C=C/C=C/C=C/[C@H](O[C@@H]2O[C@H](C)[C@@H](O)[C@H](N)[C@@H]2O)C[C@@H]2O[C@](O)(C[C@@H](O)C[C@@H](O)[C@H](O)CC[C@@H](O)C[C@@H](O)CC(=O)O[C@H]1C)C[C@H](O)[C@H]2C(=O)O [Amphotericin B]"
  Result value: "> 100.00"

In the following, a different compound is considered.
Dear colleague, please send me the reported Selectivity Index (SI) for CCCNC(C)C(=O)Nc1ccccc1C (centres unmarked) [Prilocaine] when you can. > 13.02

* * *

experiment: Cytotoxicity assay towards THP-1-derived macrophages (MTT); assay type: cell-based, human; details: human, THP-1-derived macrophages (PMA-differentiated), 72 h of treatment, uninfected cells, MTT; read-out: THP-1-derived macrophages CC50 (in brackets) (converted)
Quantity: CC50 at 72 h

Some entries whose results are on file:
- Molecule: "CNC[C@H](O)c1cccc(O)c1"
  Result value: "> 1200 µM"
- Molecule: "CCCNC(C)C(=O)Nc1ccccc1C (stereo not drawn)"
  Result value: "> 1820 µM"
- Molecule: "CCCC(=O)Nc1ccc(OCC(O)CNC(C)C)c(C(C)=O)c1 (stereo not drawn)"
  Result value: "> 536 µM"
- Molecule: "C[C@@H]1[C@H](O)[C@@H](C)/C=C/C=C/C=C/C=C/C=C/C=C/C=C/[C@H](O[C@@H]2O[C@H](C)[C@@H](O)[C@H](N)[C@@H]2O)C[C@@H]2O[C@](O)(C[C@@H](O)C[C@@H](O)[C@H](O)CC[C@@H](O)C[C@@H](O)CC(=O)O[C@H]1C)C[C@H](O)[C@H]2C(=O)O"
  Result value: "> 5.41 µM"
- Molecule: "CCCCOc1cc(C(=O)NCCN(CC)CC)c2ccccc2n1"
  Result value: "59.7 µM"

Could you now look at the following molecule, please?
Please supply the value of reported CC50 at 72 h for the item O=c1[nH]c2ccccc2n1CCCN1CCC(n2c(=O)[nH]c3cc(Cl)ccc32)CC1 62.4 µM

All figures here come from paper PMC11464777.
